For each entry below, report its Mouse Kallikrein IC50 value.
assayed.target: mouse plasma kallikrein (R&D Systems) (mouse, UniProt P26262 20-638)
Sequence (P26262 20-638 limits assumed): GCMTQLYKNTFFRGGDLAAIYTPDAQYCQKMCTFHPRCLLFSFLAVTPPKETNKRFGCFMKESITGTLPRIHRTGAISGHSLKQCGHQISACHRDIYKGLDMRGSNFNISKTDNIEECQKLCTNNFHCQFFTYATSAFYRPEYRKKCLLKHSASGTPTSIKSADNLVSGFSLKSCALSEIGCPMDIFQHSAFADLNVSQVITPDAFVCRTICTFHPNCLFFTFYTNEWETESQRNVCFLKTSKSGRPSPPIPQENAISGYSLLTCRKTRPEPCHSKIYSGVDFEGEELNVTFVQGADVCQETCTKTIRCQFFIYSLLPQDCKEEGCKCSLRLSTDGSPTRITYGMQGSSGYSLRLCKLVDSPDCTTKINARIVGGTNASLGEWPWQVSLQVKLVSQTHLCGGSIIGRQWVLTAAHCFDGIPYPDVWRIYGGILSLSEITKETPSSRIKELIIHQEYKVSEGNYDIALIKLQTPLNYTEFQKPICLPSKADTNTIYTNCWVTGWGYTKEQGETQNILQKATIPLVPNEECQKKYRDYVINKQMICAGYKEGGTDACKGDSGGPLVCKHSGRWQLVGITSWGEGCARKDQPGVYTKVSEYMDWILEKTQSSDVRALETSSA
protocol.text: cell-based or functional assay
Bridge positions count the residues as written; N and C are the ends. Square brackets hold non-standard residues; d marks the D form. Ends that are not written are not given here. * marks the point of attachment. mXylyl = xylyl linker from dibromoxylene joining the two cysteines; des‑NH2 = missing amino-terminal amine group; Phg = N[C@H](C(=O)O)c1ccccc1; Tle = CC(C)(C)[C@H](N)C(=O)O; NMeS = CN[C@@H](CO)C(=O)O; Heptanoyl = CCCCCCC(=O)*; Nva = CCC[C@H](N)C(=O)O
The reply should be a number in µM, with the unit left off.

Incoming: Which Mouse Kallikrein IC50 reading was recorded for the binder MCNYWSPWTECSA-NH2 (cysteine pairing not given here) [R2104] ?
Outgoing: 0.0112

Incoming: Which Mouse Kallikrein IC50 reading was recorded for the binder Heptanoyl-CESICRV-NH2 (linker 1-5 via mXylyl) [R2041] ?
Outgoing: 0.191

Incoming: Which Mouse Kallikrein IC50 reading was recorded for the binder MCES[Phg]CRV-NH2 (linker 2-6 via mXylyl) [R2012] ?
Outgoing: 0.0113

Incoming: Which Mouse Kallikrein IC50 reading was recorded for the binder [Nva]CEP[Phg]CR[Tle]-NH2 (linker 2-6 via mXylyl) [R2030] ?
Outgoing: 0.0639

Incoming: Which Mouse Kallikrein IC50 reading was recorded for the binder Ac-CESICRV-NH2 (linker 1-5 via mXylyl) [R2023] ?
Outgoing: 0.0473

Incoming: Which Mouse Kallikrein IC50 reading was recorded for the binder MCE[NMeS]ICRV-NH2 (linker 2-6 via mXylyl) [R2019] ?
Outgoing: 0.0856

Incoming: Which Mouse Kallikrein IC50 reading was recorded for the binder MCESICR[Tle]-NH2 (linker 2-6 via mXylyl) [R2010] ?
Outgoing: 0.0388

Incoming: Which Mouse Kallikrein IC50 reading was recorded for the binder MCESICRV-NH2 (linker 2-6 via mXylyl) [R2006] ?
Outgoing: 0.042

Incoming: Which Mouse Kallikrein IC50 reading was recorded for the binder Ac-CAS[Phg]CR[Tle]-NH2 (linker 1-5 via mXylyl) [R2036] ?
Outgoing: 0.0128

Incoming: Which Mouse Kallikrein IC50 reading was recorded for the binder Ac-CASICRV-NH2 (linker 1-5 via mXylyl; not fully specified (residue 2); printed as [mXylyl(1,5)]Ac-C-a-SICRV-NH2) [R2047] ?
Outgoing: 0.0367

Incoming: Which Mouse Kallikrein IC50 reading was recorded for the binder {des‑NH2}-CESICRV-NH2 (linker 1-5 via mXylyl; not fully specified (residue 1); printed as [mXylyl(1,5)](des-NH2)C-ESICRV-NH2) [R2051] ?
Outgoing: 0.0193

Data provenance: patent US20150166606A1
